Tested on: MOLT-4 leukemia
Experiment: NCI tumour cell line growth inhibition, 48 h

| molecule | TGI |
| --- | --- |
| COc1cc2c(cc1C)NC(=O)/C2=C/c1ccnc2ccccc12 | > 50 µM |
| N#Cc1ccccc1NC(=O)C(=O)C(C(=O)c1ccccc1F)C1OC(=O)c2ccccc21 (stereo unspecified) | > 100 µM |
| O=C1NC(O)n2c(=O)[nH]c(=O)n21 (stereo unspecified) | > 100 µM |
| CCOC(=O)NC(=S)N(CC(=O)c1cc(OC)c(OC)c(OC)c1)c1ccc(Cl)cc1 | > 100 µM |
| CC(Nc1ccc(Cl)cc1)c1ccncc1 (stereo unspecified) | > 100 µM |
| COC1CC(C)(NC(=O)C(F)(F)F)C2OC(c3ccccc3)OCC2O1 (stereo unspecified) | > 100 µM |

---

Test system: IGROV1 ovarian
Assay: NCI tumour cell line growth inhibition, 48 h

| compound | TGI |
| --- | --- |
| COC(=O)C1CC(c2ccc(OC)c(OC)c2)OC1=O (mixture of isomers) | > 100 µM |
| CCOc1ccc(NC(=O)/C(CC(=O)c2c[n+](=O)c3ccccc3n2[O-])=N\OCCCc2ccccc2)cc1 | > 100 µM |
| COc1cc2c(cc1OC)C(=O)N(c1ccc(OCCN3CCCC3)cc1)C2 | > 100 µM |

---

# TGI per record follows
Tested on: UO-31 renal
Assay: NCI tumour cell line growth inhibition, 48 h

| compound | TGI |
| --- | --- |
| COC(=O)[C@]1(c2cc3ccccc3n2S(=O)(=O)c2ccccc2)CC2CN(C(=O)OCc3ccccc3)C1C1OC(C)(C)OC21 (some centres undefined) | > 100 µM |
| CC(C)C[C@@H](N)[C@@H](O)C(=O)N[C@H](C(=O)N[C@H](C(=O)N[C@@H](CC(=O)O)C(=O)O)C(C)C)C(C)C | > 20 µM |
| C=C(Br)CN=CN(C)C | > 100 µM |
| CSC(SC)=C(C(=O)c1ccc(Cl)cc1)n1c(=O)sc2cc(Br)ccc21 | > 100 µM |

---

System: UACC-62 melanoma
Assay: NCI tumour cell line growth inhibition, 48 h
# TGI per record follows

| compound | TGI |
| --- | --- |
| FC1=C2C3CCC(C3)C2C1(F)F (centres undefined) | > 100 µM |
| Cc1ccc(C2=CC(=O)c3ccccc3C2=O)n1-c1ccccc1 | > 100 µM |
| CCCCCCCC(=O)OCC/C=C/C1OC1C1OC(=O)/C=C\C=C\C(=O)N(C(C)=O)C(=O)/C=C(/C)CCC2OC2C1OC(=O)NC(C)=O (centres undefined) | > 25 µM |
| CC1CCC2C(C)C(=O)OC2C2(C)C(=O)C=CC12 (centres undefined) | > 10 µM |
| Cc1c(C)c([N+](=O)[O-])c2c(c1N)C(=O)c1ccccc1C2=O | > 100 µM |
| CN1CCCC2[C@@H]3CCC4c5nonc5CC[C@]4(C)C3CC[C@@]21C (some centres undefined) | > 100 µM |
| O=C(CC1=Nc2nnc(CCCCCCCc3nnc4n3C(=O)C(CC(=O)c3ccc5ccccc5c3)=N4)n2C1=O)c1ccc2ccccc2c1 | > 100 µM |
| COc1cccc2c1C(=O)c1c(O)c3c(c(O)c1C2=O)C[C@@](O)(C(C)=O)CC3OC1CC(OC2CC(N)C(O)C(C)O2)C(O)C(C)O1 (some centres undefined) | > 100 µM |
| C/C(=N\Nc1nc2ccccc2s1)c1ccncn1 | > 26.5 µM |

---

# TGI per record follows
System: SK-OV-3 ovarian
Assay: NCI tumour cell line growth inhibition, 48 h

| compound | TGI |
| --- | --- |
| N#Cc1ccccc1NC(=O)C(=O)C(C(=O)c1ccccc1F)C1OC(=O)c2ccccc21 (configuration not stated) | > 100 µM |
| C=C(Br)CN=CN(C)C | > 100 µM |
| C[C@H]1S[C@@H](c2ccc(Cl)cc2Cl)N(NC(=O)c2ccncc2)C1=O | > 100 µM |
| Clc1ccc2c(c1)N(CCCN1CCCC13CCCCC3)c1ccccc1S2 | 57.7 µM |
| CC1=C(C)C(=O)C(C2=CC(=O)c3ccccc3C2=O)=C(C2=CC(=O)c3ccccc3C2=O)C1=O | 45.8 µM |
| C/C(=N\Nc1nc2ccccc2s1)c1ccncn1 | > 32.1 µM |
| O=C(O)CSC(CC(=O)c1ccc(Cl)cc1)c1ccc(Cl)cc1 (configuration not stated) | 97.9 µM |

---

System: EKVX NSCLC
Experiment: NCI tumour cell line growth inhibition, 48 h

| compound | TGI |
| --- | --- |
| Cn1c(COC(=O)NCCc2ccccn2)nc2c(N3CCOCC3)nc(Cl)nc21 | 3.7 µM |
| CC1=C(CO)C(=O)OC(C(C)C2CCC3C4CC5OC56C(O)C(N5CC5)=CC(=O)C6(C)C4CCC23C)C1 (stereo unspecified) | 25.6 µM |
| CC1=NN(C(=O)CC(=O)Nc2cccc(C)c2)C(=O)C1N=Nc1ccc(S(=O)(=O)CCOS(=O)(=O)O)cc1 (stereo unspecified) | > 64.6 µM |
| C/C(=N/NC(=S)Nc1ccccc1)c1nc2ccc(Cl)cc2[nH]1 | 0.959 µM |
| CC(Nc1ccc(Cl)cc1)c1ccncc1 (stereo unspecified) | > 100 µM |
| Cn1c(=O)oc2cc(C3CCC(=O)N3Cc3csc(-c4ccccc4)n3)ccc21 (stereo unspecified) | > 100 µM |
| COC(=O)C1=C(CCCCO[Si](C)(C)C(C)(C)C)NC(=O)N2[C@H](CCOCc3ccccc3)CC[C@@H]12 | > 100 µM |
| COc1ccc(-n2cc(-c3ccc(OC)c(OC)c3)[nH]c2=O)cc1 | > 100 µM |
| CCC[CH2][Sn-]([CH2]CCC)([CH2]CCC)[O]C(=O)C(C)C | 0.362 µM |
| Nc1c(C(=O)c2ccc(Cl)c(Cl)c2)[nH]c(NCc2ccccc2)c1C(=S)Nc1ccccc1 | 29.6 µM |
| O=C1/C(=C/c2ccccc2)Oc2cc(O)ccc21 | > 100 µM |
| c1cnc2c(c1)-n1cccc1C1(CCCCC1)NN2 | > 100 µM |
| COc1cc(/C=N/NC(=O)c2cnn3c2NC(c2ccccc2)C3)ccc1OC1CCCC1 (stereo unspecified) | 14 µM |
| CCOC(=O)c1c(N)sc2c1C(C(=O)OCC)CCCC2 (stereo unspecified) | > 100 µM |
| CC(C)(C)C(=O)Nc1c(C=O)ccc2[nH]cnc12 | > 100 µM |
| CN(C)C(=S)/N=c1\ss/c(=N\C(=S)N(C)C)n1-c1cccc(Cl)c1 | > 100 µM |
| Cc1ccccc1NC(=O)O/N=C(\Cl)C(C)C | 4.94 µM |
| COc1cc2c(cc1OCCNC(=O)/C=C1\C[C@H]3C=Nc4cc(OCc5ccccc5)c(OC)cc4C(=O)N3C1)N=C[C@@H]1CCCN1C2=O | 81.6 µM |
| COc1ccc(N2C(=O)C3c4[nH]c5c(C)cccc5c4C4CCC(C(C)C)CC4C3C2=O)cc1 (stereo unspecified) | 40.6 µM |
| C=C1c2nc3ccccc3n2C=C(c2ccc(C)cc2)N1c1ccc(OC)cc1 | > 100 µM |
| NC(N)=N/N=C\c1ccc(OCc2ccccc2)cc1 | 24.2 µM |
| O=C(O)CSC(CC(=O)c1ccc(Cl)cc1)c1ccc(Cl)cc1 (stereo unspecified) | > 100 µM |
| CCN1CC2(C)CCC(OC)C34C5CC6CCC(O)(C5C(=O)O6)C(C(O)C23)C14 (stereo unspecified) | > 100 µM |
| ClC1=NN=C(c2c[nH]c3ccccc23)CC1NCc1ccccc1 (stereo unspecified) | > 100 µM |
| C[C@@H]1C[C@@H]([C@H](O)CC2CC(=O)NC(=O)C2)C(=O)[C@@H](C)C1 | 4.45 µM |
| CC1(C)CC(C)(C)c2cc(NC(=S)Nc3ccc([N+](=O)[O-])cc3)ccc2S1 | 29.7 µM |
| O=[N+]([O-])c1ccc(-n2nc3ccc4nonc4c3n2)cc1 | > 100 µM |
| O=C(c1ccccc1)C1N=NN(Cc2ccccc2[N+](=O)[O-])C1C(=O)c1ccccc1 (stereo unspecified) | > 100 µM |
| NCCO/C=C/C(N)C(=O)O (stereo unspecified) | > 100 µM |
| O=CCCCCCOCc1ccccc1 | > 100 µM |
| COc1c2ccoc2nc2c(OC)c(OCC(O)C(C)(C)O)ccc12 (stereo unspecified) | > 100 µM |

---

System: OVCAR-3 ovarian
Experiment: NCI tumour cell line growth inhibition, 48 h

| molecule | target or test system | TGI |
| --- | --- | --- |
| Cc1nc(NC(C)(CO)CO)nc(N/N=C/c2ccc(Cl)cc2)c1C(=O)Nc1ccc(Cl)cc1 | OVCAR-3 ovarian | > 100 µM |
| COc1nc(Cl)nc(N[C@H](C)c2c3ccccc3cc3ccccc23)n1 | OVCAR-3 ovarian | 23.5 µM |
| O=C(O)C(Cc1ccccc1)NCc1c(O)ccc2c(-c3ccccc3)cc(=O)oc12 (centres undefined) | OVCAR-3 ovarian | > 100 µM |
| COc1cccc2c1C(=O)c1c(O)c3c(c(O)c1C2=O)C[C@@](O)(C(C)=O)CC3OC1CC(OC2CC(N)C(O)C(C)O2)C(O)C(C)O1 (some centres undefined) | OVCAR-3 ovarian | > 100 µM |

Numbers sourced from PubChem BioAssay (NCI).
